Cited source: ChEMBL document CHEMBL5154675

Target: CREB-binding protein (Homo sapiens)
Sequence (Q92793 2-2442 limits assumed): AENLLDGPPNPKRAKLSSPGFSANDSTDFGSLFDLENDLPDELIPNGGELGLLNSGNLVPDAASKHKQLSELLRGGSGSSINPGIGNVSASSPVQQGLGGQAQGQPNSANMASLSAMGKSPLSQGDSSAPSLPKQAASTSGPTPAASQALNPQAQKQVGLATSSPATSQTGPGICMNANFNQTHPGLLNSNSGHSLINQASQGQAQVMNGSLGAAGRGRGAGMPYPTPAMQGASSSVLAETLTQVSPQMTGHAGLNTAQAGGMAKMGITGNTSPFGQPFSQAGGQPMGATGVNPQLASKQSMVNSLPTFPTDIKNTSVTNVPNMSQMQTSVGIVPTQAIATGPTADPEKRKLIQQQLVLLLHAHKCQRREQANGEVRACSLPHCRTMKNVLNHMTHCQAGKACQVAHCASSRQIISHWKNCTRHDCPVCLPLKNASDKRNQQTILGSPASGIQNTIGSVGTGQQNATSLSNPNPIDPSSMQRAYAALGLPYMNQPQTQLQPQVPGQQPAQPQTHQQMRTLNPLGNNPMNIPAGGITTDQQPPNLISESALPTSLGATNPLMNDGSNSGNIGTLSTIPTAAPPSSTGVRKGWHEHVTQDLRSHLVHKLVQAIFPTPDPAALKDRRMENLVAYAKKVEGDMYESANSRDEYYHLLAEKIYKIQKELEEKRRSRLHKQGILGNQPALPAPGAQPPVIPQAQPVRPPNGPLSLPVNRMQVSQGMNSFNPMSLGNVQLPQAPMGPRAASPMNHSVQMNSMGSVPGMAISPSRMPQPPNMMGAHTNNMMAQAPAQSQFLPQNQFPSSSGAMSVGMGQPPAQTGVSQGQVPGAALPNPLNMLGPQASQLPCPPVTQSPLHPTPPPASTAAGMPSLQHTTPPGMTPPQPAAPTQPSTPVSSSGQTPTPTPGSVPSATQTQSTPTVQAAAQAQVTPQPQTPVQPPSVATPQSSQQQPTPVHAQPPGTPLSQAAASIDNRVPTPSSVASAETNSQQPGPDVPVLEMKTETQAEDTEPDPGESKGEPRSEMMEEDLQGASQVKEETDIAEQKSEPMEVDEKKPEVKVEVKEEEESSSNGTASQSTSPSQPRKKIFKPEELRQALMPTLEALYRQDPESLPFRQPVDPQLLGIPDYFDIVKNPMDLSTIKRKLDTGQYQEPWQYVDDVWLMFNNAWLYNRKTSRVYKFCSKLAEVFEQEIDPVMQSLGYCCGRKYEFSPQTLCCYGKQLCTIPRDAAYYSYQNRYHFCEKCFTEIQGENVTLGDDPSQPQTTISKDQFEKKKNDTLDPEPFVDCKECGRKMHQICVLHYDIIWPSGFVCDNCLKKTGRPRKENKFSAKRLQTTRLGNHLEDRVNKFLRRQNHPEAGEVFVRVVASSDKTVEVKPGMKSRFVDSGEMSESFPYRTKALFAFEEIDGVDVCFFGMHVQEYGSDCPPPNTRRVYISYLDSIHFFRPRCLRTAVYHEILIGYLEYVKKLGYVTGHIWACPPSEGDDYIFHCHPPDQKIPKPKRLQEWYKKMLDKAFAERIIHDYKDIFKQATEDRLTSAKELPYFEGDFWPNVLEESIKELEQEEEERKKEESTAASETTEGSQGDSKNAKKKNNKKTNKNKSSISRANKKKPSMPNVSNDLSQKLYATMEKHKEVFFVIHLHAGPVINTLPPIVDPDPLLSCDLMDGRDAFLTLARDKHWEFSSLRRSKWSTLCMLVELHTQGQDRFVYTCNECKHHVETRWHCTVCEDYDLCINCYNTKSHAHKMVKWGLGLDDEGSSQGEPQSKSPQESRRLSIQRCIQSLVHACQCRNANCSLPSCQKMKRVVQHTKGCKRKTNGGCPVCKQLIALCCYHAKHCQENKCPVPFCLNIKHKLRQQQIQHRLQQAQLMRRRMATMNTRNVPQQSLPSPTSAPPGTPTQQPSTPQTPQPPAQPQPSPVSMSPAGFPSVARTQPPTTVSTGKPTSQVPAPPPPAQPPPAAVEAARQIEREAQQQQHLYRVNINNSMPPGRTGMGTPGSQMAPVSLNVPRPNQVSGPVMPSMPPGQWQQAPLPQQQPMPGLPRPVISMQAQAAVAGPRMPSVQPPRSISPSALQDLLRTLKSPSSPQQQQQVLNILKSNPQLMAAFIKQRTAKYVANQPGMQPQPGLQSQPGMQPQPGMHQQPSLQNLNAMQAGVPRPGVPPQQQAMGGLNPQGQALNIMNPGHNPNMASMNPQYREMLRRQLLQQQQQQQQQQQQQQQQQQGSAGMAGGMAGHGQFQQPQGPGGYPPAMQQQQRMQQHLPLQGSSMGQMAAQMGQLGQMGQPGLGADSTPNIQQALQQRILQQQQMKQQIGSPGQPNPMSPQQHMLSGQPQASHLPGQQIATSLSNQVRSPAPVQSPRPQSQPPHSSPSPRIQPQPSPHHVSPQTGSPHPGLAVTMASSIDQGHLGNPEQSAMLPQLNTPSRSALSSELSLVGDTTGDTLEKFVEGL
Details: dose 200.0 µM, time 30.0 min
Would you mind telling me the reported ΔTm of each entry?
Report as a plain number; the unit °C is understood.

Give ΔTm; test system CREB-binding protein (Homo sapiens); compound `CC(=O)c1cc(C(=O)Nc2cc(CO)cc(-c3cnn(C)c3)c2F)c2cc(N)ccn12`
13.5

Give ΔTm; test system CREB-binding protein (Homo sapiens); compound `CC(=O)c1cc(C(=O)Nc2cc(CO)cc(-c3cnn(C4CC4)c3)c2F)c2cc(OC(=O)N(C)C)ccn12`
11.5

Give ΔTm; test system CREB-binding protein (Homo sapiens); compound `COc1ccn2c(C(C)=O)cc(C(=O)Nc3cc(F)cc(-c4cnn(C)c4)c3F)c2c1`
6.6

Give ΔTm; test system CREB-binding protein (Homo sapiens); compound `COc1ccn2c(C(C)=O)cc(C(=O)Nc3cc(C(F)(F)F)cc(-c4cnn(C)c4)c3F)c2c1`
2.7

Give ΔTm; test system CREB-binding protein (Homo sapiens); compound `CCc1ccn2c(C(C)=O)cc(C(=O)Nc3cc(CO)cc(-c4cnn(C)c4)c3F)c2c1`
6.3

Give ΔTm; test system CREB-binding protein (Homo sapiens); compound `CC(=O)c1cc(C(=O)Nc2cc(CO)cc(-c3cnn(C4CC4)c3)c2F)c2cc(N)ccn12`
10.5

Give ΔTm; test system CREB-binding protein (Homo sapiens); compound CC(=O)c1cc(C(=O)Nc2cc(C(C)O)cc(-c3cnn(C4CC4)c3)c2F)c2cc(O)ccn12 (stereo not given)
12

Give ΔTm; test system CREB-binding protein (Homo sapiens); compound `COc1ccn2c(C(C)=O)cc(C(=O)Nc3cc(C(=O)O)cc(-c4cnn(C)c4)c3F)c2c1`
11.4

Give ΔTm; test system CREB-binding protein (Homo sapiens); compound CC(=O)c1cc(C(=O)Nc2cc(C(C)O)cc(-c3cnn(C4CC4)c3)c2F)c2cc(N)ccn12 (stereo not given)
14

Give ΔTm; test system CREB-binding protein (Homo sapiens); compound `COc1ccn2c(C(C)=O)cc(C(=O)Nc3cc(Cl)cc(-c4cnn(C)c4)c3F)c2c1`
6

Give ΔTm; test system CREB-binding protein (Homo sapiens); compound `COc1ccn2c(C(C)=O)cc(C(=O)Nc3cc(C(N)=O)cc(-c4cnn(C)c4)c3F)c2c1`
2.4

Give ΔTm; test system CREB-binding protein (Homo sapiens); compound `CNc1ccn2c(C(C)=O)cc(C(=O)Nc3cc(CO)cc(-c4cnn(C)c4)c3F)c2c1`
9.9

Give ΔTm; test system CREB-binding protein (Homo sapiens); compound CO[C@H]1CC[C@H](n2c([C@@H]3CCCC(=O)N3c3ccc(F)c(F)c3)nc3cc(-c4c(C)noc4C)ccc32)CC1 [INOBRODIB]
17.5

Give ΔTm; test system CREB-binding protein (Homo sapiens); compound `CC(=O)c1cc(C(=O)Nc2cc(CO)cc(-c3cnn(C)c3)c2F)c2cc(O)ccn12`
12.6

Give ΔTm; test system CREB-binding protein (Homo sapiens); compound `CC(=O)c1cc(C(=O)Nc2cc(CO)cc(-c3cnn(C4CC4)c3)c2F)c2cc(O)ccn12`
14.1

Give ΔTm; test system CREB-binding protein (Homo sapiens); compound `COc1ccn2c(C(C)=O)cc(C(=O)Nc3cc(C=O)cc(-c4cnn(C)c4)c3F)c2c1`
5.4

Give ΔTm; test system CREB-binding protein (Homo sapiens); compound `Cn1cc(-c2cc(CO)cc(NC(=O)c3cc(C(=O)C4CC4)n4ccc(O)cc34)c2F)cn1`
2.1

Give ΔTm; test system CREB-binding protein (Homo sapiens); compound `COc1ccn2c(C(C)=O)cc(C(=O)Nc3cc(CO)cc(-c4cnn(C)c4)c3F)c2c1`
8.4

Give ΔTm; test system CREB-binding protein (Homo sapiens); compound `CC(=O)c1cc(C(=O)Nc2cc(CO)cc(-c3cnn(C)c3)c2F)c2cc(C)ccn12`
6.3

Give ΔTm; test system CREB-binding protein (Homo sapiens); compound COc1ccn2c(C(C)=O)cc(C(=O)Nc3cc(C(C)O)cc(-c4cnn(C5CC5)c4)c3F)c2c1 (stereo not given)
11.5

Give ΔTm; test system CREB-binding protein (Homo sapiens); compound `CC(=O)c1cc(C(=O)Nc2cc(CO)cc(-c3cnn(C)c3)c2F)c2cc(CN)ccn12`
8.7

Give ΔTm; test system CREB-binding protein (Homo sapiens); compound `C[C@@H]1CC(=O)Nc2cccc(-c3ccc4c(c3)c(-c3cnn(C)c3)nn4C)c2N1`
14.3

Give ΔTm; test system CREB-binding protein (Homo sapiens); compound `CC(C)C(=O)c1cc(C(=O)Nc2cc(CO)cc(-c3cnn(C)c3)c2F)c2cc(O)ccn12`
1.8

Give ΔTm; test system CREB-binding protein (Homo sapiens); compound `COC(=O)c1cc(NC(=O)c2cc(C(C)=O)n3ccc(OC)cc23)c(F)c(-c2cnn(C)c2)c1`
3.3

Give ΔTm; test system CREB-binding protein (Homo sapiens); compound `CNC(=O)c1cc(C(=O)Nc2cc(CO)cc(-c3cnn(C)c3)c2F)c2cc(O)ccn12`
2.4

Give ΔTm; test system CREB-binding protein (Homo sapiens); compound `CC(=O)c1cc(C(=O)Nc2cc(CO)cc(-c3cnn(C)c3)c2F)c2cc(OC(=O)C(C)(C)C)ccn12`
6

Give ΔTm; test system CREB-binding protein (Homo sapiens); compound CC(=O)c1cc(C(=O)Nc2cc(C(C)O)cc(-c3cnn(C4CC4)c3)c2F)c2cc(OC(=O)N(C)C)ccn12 (stereo not given)
10

Give ΔTm; test system CREB-binding protein (Homo sapiens); compound `Cn1cc(-c2cc(CO)cc(NC(=O)c3cc(C(=O)C(C)(C)C)n4ccc(O)cc34)c2F)cn1`
0.9

Give ΔTm; test system CREB-binding protein (Homo sapiens); compound `CCC(=O)c1cc(C(=O)Nc2cc(CO)cc(-c3cnn(C)c3)c2F)c2cc(O)ccn12`
11.1

Give ΔTm; test system CREB-binding protein (Homo sapiens); compound `CC(=O)c1cc(C(=O)Nc2cc(CO)cc(-c3cnn(C)c3)c2F)c2cc(OCc3ccccc3)ccn12`
3.9
